# Tested on: Candida albicans
# assay-summary: Antiadherence activity against FITC-labelled Candida albicans ATCC 28366 assessed as reduction in bacterial adhesion to hydroxylapatite up to 96 ug/mL after 1 hr by fluorescence assay relative to control
# Assay type: functional
Active and inactive are the calls of the source. The rule behind the calls is not given here.
measured-parameter: Activity

[
  {
    "structure-notation": "O=C1N[C@H](Cc2ccc(OCc3ccccc3)cc2)C(=O)N[C@@H]1Cc1ccccc1",
    "reported-result": "Active"
  },
  {
    "structure-notation": "O=C1N[C@H](Cc2ccc(OCc3ccccc3)cc2)C(=O)N[C@@H]1Cc1ccc(OCc2ccccc2)cc1",
    "reported-result": "Active"
  },
  {
    "structure-notation": "O=C1N[C@@H](Cc2ccc(OCc3ccccc3)cc2)C(=O)N[C@H]1Cc1ccc(OCc2ccccc2)cc1",
    "reported-result": "Active"
  },
  {
    "structure-notation": "O=C1N[C@@H](Cc2ccc(OCc3ccccc3)cc2)C(=O)N[C@H]1Cc1ccccc1",
    "reported-result": "Active"
  },
  {
    "structure-notation": "O=C1N[C@H](Cc2ccccc2)C(=O)N[C@H]1Cc1ccc(OCc2ccccc2)cc1",
    "reported-result": "Active"
  }
]

---

# System: Listeria monocytogenes
# assay-summary: Growth inhibition of Listeria monocytogenes WSLC 1001 incubated for 24 hrs under aerobic condition by microdilution method
# Assay type: organism-based
# cond: in vitro
Each item that follows carries a reported MIC.
measured-parameter: MIC

[
  {
    "structure-notation": "O=C1N[C@H](Cc2ccc(OCc3ccccc3)cc2)C(=O)N[C@H]1Cc1ccc(OCc2ccccc2)cc1",
    "experimental-target": "Listeria monocytogenes",
    "reported-result": "> 192 µg/mL"
  },
  {
    "structure-notation": "O=C1N[C@@H](Cc2ccc(OCc3ccccc3)cc2)C(=O)N[C@H]1Cc1ccc(OCc2ccccc2)cc1",
    "experimental-target": "Listeria monocytogenes",
    "reported-result": "> 192 µg/mL"
  },
  {
    "structure-notation": "O=C1N[C@@H](Cc2ccccc2)C(=O)N[C@H]1Cc1ccccc1",
    "experimental-target": "Listeria monocytogenes",
    "reported-result": "> 192 µg/mL"
  },
  {
    "structure-notation": "O=C1N[C@H](Cc2ccccc2)C(=O)N[C@H]1Cc1ccccc1",
    "experimental-target": "Listeria monocytogenes",
    "reported-result": "> 192 µg/mL"
  },
  {
    "structure-notation": "O=C1N[C@H](Cc2ccc(OCc3ccccc3)cc2)C(=O)N[C@H]1Cc1ccccc1",
    "experimental-target": "Listeria monocytogenes",
    "reported-result": "> 192 µg/mL"
  },
  {
    "structure-notation": "O=C1N[C@@H](Cc2ccc(OCc3ccccc3)cc2)C(=O)N[C@H]1Cc1ccccc1",
    "experimental-target": "Listeria monocytogenes",
    "reported-result": "> 192 µg/mL"
  },
  {
    "structure-notation": "O=C1N[C@@H](Cc2ccc(O)cc2)C(=O)N[C@H]1Cc1ccccc1",
    "experimental-target": "Listeria monocytogenes",
    "reported-result": "> 192 µg/mL"
  },
  {
    "structure-notation": "O=C1N[C@H](Cc2ccccc2)C(=O)N[C@H]1Cc1ccc(OCc2ccccc2)cc1",
    "experimental-target": "Listeria monocytogenes",
    "reported-result": "> 192 µg/mL"
  },
  {
    "structure-notation": "O=C1N[C@@H](Cc2ccc(O)cc2)C(=O)N[C@H]1Cc1ccc(O)cc1",
    "experimental-target": "Listeria monocytogenes",
    "reported-result": "> 192 µg/mL"
  },
  {
    "structure-notation": "O=C1N[C@H](Cc2ccccc2)C(=O)N[C@@H]1Cc1ccccc1",
    "experimental-target": "Listeria monocytogenes",
    "reported-result": "> 192 µg/mL"
  },
  {
    "structure-notation": "O=C1N[C@H](Cc2ccc(OCc3ccccc3)cc2)C(=O)N[C@@H]1Cc1ccccc1",
    "experimental-target": "Listeria monocytogenes",
    "reported-result": "> 192 µg/mL"
  },
  {
    "structure-notation": "O=C1N[C@H](Cc2ccc(OCc3ccccc3)cc2)C(=O)N[C@@H]1Cc1ccc(OCc2ccccc2)cc1",
    "experimental-target": "Listeria monocytogenes",
    "reported-result": "> 192 µg/mL"
  },
  {
    "structure-notation": "O=C1N[C@H](Cc2ccc(O)cc2)C(=O)N[C@@H]1Cc1ccccc1",
    "experimental-target": "Listeria monocytogenes",
    "reported-result": "> 192 µg/mL"
  }
]

---

# Test system: Candida albicans
# assay-summary: Antiadherence activity against FITC-labelled Candida albicans ATCC 28366 assessed as reduction in bacterial adhesion to hydroxylapatite up to 96 ug/mL after 1 hr by fluorescence assay relative to control
# Type: functional
Active and inactive are the calls of the source. The rule behind the calls is not given here.

[
  {
    "structure-notation": "O=C1N[C@@H](Cc2ccc(O)cc2)C(=O)N[C@H]1Cc1ccccc1",
    "Activity": "inactive"
  },
  {
    "structure-notation": "O=C1N[C@H](Cc2ccc(O)cc2)C(=O)N[C@@H]1Cc1ccccc1",
    "Activity": "inactive"
  },
  {
    "structure-notation": "O=C1N[C@@H](Cc2ccc(O)cc2)C(=O)N[C@H]1Cc1ccc(O)cc1",
    "Activity": "20%"
  }
]

---

# Tested on: Streptococcus mutans
# assay-summary: Inhibition of planktonic growth of Streptococcus mutans ATCC 25175 up to 96 ug/mL after 24 hrs relative to control
# Type: organism-based
measured-parameter: growth inhibition (GI)

[
  {
    "compound": "O=C1N[C@H](COCc2ccccc2)C(=O)N[C@H]1COCc1ccccc1",
    "reported-result": "Non-Toxic"
  },
  {
    "compound": "O=C1N[C@@H](Cc2ccc(O)cc2)C(=O)N[C@H]1Cc1ccccc1",
    "reported-result": "Toxic"
  },
  {
    "compound": "CC(C)C[C@@H]1NC(=O)[C@@H]2CCCN2C1=O",
    "reported-result": "Non-Toxic"
  },
  {
    "compound": "O=C(NCCCC[C@@H]1NC(=O)[C@H](Cc2ccccc2)NC1=O)OCc1ccccc1",
    "reported-result": "Non-Toxic"
  },
  {
    "compound": "C[C@H]1NC(=O)[C@@H](C)NC1=O",
    "reported-result": "Non-Toxic"
  },
  {
    "compound": "C[C@@H]1NC(=O)[C@H](Cc2ccccc2)NC1=O",
    "reported-result": "Non-Toxic"
  },
  {
    "compound": "CCC(C)[C@@H]1NC(=O)[C@H](C(C)CC)NC1=O (stereo partly drawn)",
    "reported-result": "Non-Toxic"
  },
  {
    "compound": "O=C1N[C@@H](Cc2ccc(O)cc2)C(=O)N[C@H]1Cc1ccc(O)cc1",
    "reported-result": "Toxic"
  },
  {
    "compound": "O=C1[C@@H]2CSCN2C(=O)[C@@H]2CSCN12",
    "reported-result": "Non-Toxic"
  },
  {
    "compound": "CC(C)C[C@H]1NC(=O)[C@@H](CC(C)C)NC1=O",
    "reported-result": "Non-Toxic"
  },
  {
    "compound": "O=C1N[C@H](Cc2ccc(OCc3ccccc3)cc2)C(=O)N[C@H]1Cc1ccccc1",
    "reported-result": "Non-Toxic"
  },
  {
    "compound": "CC(C)C[C@@H]1NC(=O)[C@H](C)NC1=O",
    "reported-result": "Non-Toxic"
  },
  {
    "compound": "O=C(NCCCC[C@@H]1NC(=O)[C@H](CCCCNC(=O)OCc2ccccc2)NC1=O)OCc1ccccc1",
    "reported-result": "Non-Toxic"
  },
  {
    "compound": "O=C1N[C@H](Cc2ccc(OCc3ccccc3)cc2)C(=O)N[C@@H]1Cc1ccc(OCc2ccccc2)cc1",
    "reported-result": "Non-Toxic"
  },
  {
    "compound": "O=C1N[C@H](Cc2ccccc2)C(=O)N[C@H]1Cc1ccc(OCc2ccccc2)cc1",
    "reported-result": "Non-Toxic"
  },
  {
    "compound": "O=C1N[C@H](Cc2ccc(O)cc2)C(=O)N[C@@H]1Cc1ccccc1",
    "reported-result": "Toxic"
  },
  {
    "compound": "CC(C)C[C@@H]1NC(=O)CNC1=O",
    "reported-result": "Non-Toxic"
  },
  {
    "compound": "N=C(N)NCCC[C@@H]1NC(=O)[C@H](Cc2ccc(O)cc2)NC1=O",
    "reported-result": "Non-Toxic"
  },
  {
    "compound": "CC(C)C[C@@H]1NC(=O)[C@H](CCCN(C(=N)N)[N+](=O)[O-])NC1=O",
    "reported-result": "Non-Toxic"
  },
  {
    "compound": "CC(C)C[C@@H]1NC(=O)[C@H](Cc2ccccc2)NC1=O",
    "reported-result": "Non-Toxic"
  },
  {
    "compound": "C[C@@H](OCc1ccccc1)[C@@H]1NC(=O)[C@H]([C@@H](C)OCc2ccccc2)NC1=O",
    "reported-result": "Non-Toxic"
  },
  {
    "compound": "CC(C)[C@H]1NC(=O)[C@@H](C(C)C)NC1=O",
    "reported-result": "Non-Toxic"
  },
  {
    "compound": "O=C1[C@@H]2CCCN2C(=O)[C@@H]2CCCN12",
    "reported-result": "Non-Toxic"
  },
  {
    "compound": "O=C1N[C@H](Cc2ccc(OCc3ccccc3)cc2)C(=O)N[C@H]1Cc1ccc(OCc2ccccc2)cc1",
    "reported-result": "Non-Toxic"
  },
  {
    "compound": "N=C(N)N(CCC[C@@H]1NC(=O)[C@H](CCCCNC(=O)OCc2ccccc2)NC1=O)[N+](=O)[O-]",
    "reported-result": "Non-Toxic"
  },
  {
    "compound": "C[C@@H]1NC(=O)[C@H](Cc2ccc(OCc3ccccc3)cc2)NC1=O",
    "reported-result": "Non-Toxic"
  },
  {
    "compound": "O=C1N[C@@H](Cc2ccc(OCc3ccccc3)cc2)C(=O)N[C@H]1Cc1ccccc1",
    "reported-result": "Non-Toxic"
  },
  {
    "compound": "O=C1N[C@@H](COCc2ccccc2)C(=O)N[C@H]1COCc1ccccc1",
    "reported-result": "Non-Toxic"
  },
  {
    "compound": "CC(C)C[C@H]1NC(=O)[C@H](Cc2ccccc2)NC1=O",
    "reported-result": "Non-Toxic"
  },
  {
    "compound": "CC(C)C[C@@H]1NC(=O)[C@H](Cc2ccc(OCc3ccccc3)cc2)NC1=O",
    "reported-result": "Non-Toxic"
  },
  {
    "compound": "CCC(C)[C@@H]1NC(=O)[C@H](Cc2ccccc2)NC1=O (stereo partly drawn)",
    "reported-result": "Non-Toxic"
  },
  {
    "compound": "CC(C)[C@@H]1NC(=O)[C@H](C(C)C)NC1=O",
    "reported-result": "Non-Toxic"
  },
  {
    "compound": "O=C1N[C@H](Cc2ccccc2)C(=O)N[C@@H]1COCc1ccccc1",
    "reported-result": "Non-Toxic"
  },
  {
    "compound": "C[C@H]1NC(=O)[C@@H](Cc2ccc(OCc3ccccc3)cc2)NC1=O",
    "reported-result": "Non-Toxic"
  },
  {
    "compound": "CC(C)C[C@@H]1NC(=O)[C@@H](C(C)C)NC1=O",
    "reported-result": "Non-Toxic"
  },
  {
    "compound": "O=C1N[C@@H](Cc2ccc(OCc3ccccc3)cc2)C(=O)N[C@H]1Cc1ccc(OCc2ccccc2)cc1",
    "reported-result": "Non-Toxic"
  },
  {
    "compound": "O=C1N[C@@H](Cc2ccc(OCc3ccccc3)cc2)C(=O)N2CCC[C@@H]12",
    "reported-result": "Non-Toxic"
  },
  {
    "compound": "O=C1CNC(=O)[C@H](CCC(=O)OCc2ccccc2)N1",
    "reported-result": "Non-Toxic"
  },
  {
    "compound": "CC(C)C[C@H]1NC(=O)[C@@H](Cc2ccc(OCc3ccccc3)cc2)NC1=O",
    "reported-result": "Non-Toxic"
  },
  {
    "compound": "CC(C)[C@@H]1NC(=O)[C@H](C)NC1=O",
    "reported-result": "Non-Toxic"
  },
  {
    "compound": "CC(C)C[C@@H]1NC(=O)[C@H](C(C)C)NC1=O",
    "reported-result": "Non-Toxic"
  },
  {
    "compound": "CC(C)C[C@H]1NC(=O)[C@H](C(C)C)NC1=O",
    "reported-result": "Non-Toxic"
  },
  {
    "compound": "O=C1N[C@H](Cc2ccccc2)C(=O)N[C@@H]1Cc1ccccc1",
    "reported-result": "Non-Toxic"
  }
]

# credit: ChEMBL document CHEMBL4340502
